For UniProtKB Q16790, measured Ki is reported for the entries below.
Hi! Could you send only the number? It should be in nM, unit omitted.

Report value only: Ki, UniProtKB Q16790, `NS(=O)(=O)c1ccc(NC(=O)Cc2ccccc2)cc1`
84

Name the value of Ki reported for `NS(=O)(=O)c1ccc(NC(=O)Cc2cccs2)cc1` when tested on UniProtKB Q16790.
19

Please look at `CCC[C@H](C(=O)Nc1ccc(S(N)(=O)=O)cc1)C(C)(C)C` and tell me its recorded Ki on UniProtKB Q16790.
96

###

Measured on: Carbonic anhydrase 12 (Homo sapiens, UniProt O43570)
Sequence (O43570 whole entry): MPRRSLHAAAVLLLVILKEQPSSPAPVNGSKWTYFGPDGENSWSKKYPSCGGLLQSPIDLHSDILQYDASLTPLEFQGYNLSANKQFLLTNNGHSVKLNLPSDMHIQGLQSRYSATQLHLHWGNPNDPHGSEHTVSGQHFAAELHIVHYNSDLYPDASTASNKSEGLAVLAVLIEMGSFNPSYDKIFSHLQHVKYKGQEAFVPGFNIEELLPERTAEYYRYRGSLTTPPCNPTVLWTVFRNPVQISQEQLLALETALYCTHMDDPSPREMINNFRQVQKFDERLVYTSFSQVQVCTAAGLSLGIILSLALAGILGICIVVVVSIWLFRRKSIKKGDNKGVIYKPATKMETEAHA
Attribute measured: Ki (µM)
State just the number; it will be interpreted in µM.

Report measured Ki on Carbonic anhydrase 12 (Homo sapiens, UniProt O43570); entry: `CCC[C@H](C(=O)Nc1ccc(S(N)(=O)=O)cc1)C(C)(C)C`
0.078
